Tested on: T lymphocytes in peripheral blood mononuclear cells
methodSummary: IFN-gamma ELISPOT of human T cells with IGF1R peptides
Assay type: cell-based
studyConditions: responders / volunteer donors tested
endpoint: Immunogenicity Volunteer

Illustrative cases are given below, each with its answer.
{"residueSequence": "LIIALPVAVLLIVGG [p 936-950]", "Immunogenicity Volunteer": "1/5"}
{"residueSequence": "IRGWKLFYNYALVIF [p 106-120]", "Immunogenicity Volunteer": "2/5"}
{"residueSequence": "TQYAVYVKAVTLTMV [p 575-589]", "Immunogenicity Volunteer": "1/5"}
{"residueSequence": "DYRSYRFPKLTVITE [p 69-83]", "Immunogenicity Volunteer": "1/5"}

Measured Immunogenicity Volunteer, WSFGVVLWEIATLAE [p 1196-1210] : 1/5

GET /value?item= SHALVSLSFLKNLRL [p 393-407] &field=Immunogenicity Volunteer returns 2/5

Where do the numbers come from? From patent US9060961B2.
